# system-under-test: Human NK1 Receptor (Homo sapiens, UniProt P25103)
# Construct: endogenous in cells; host or cells: Human lymphoma IM9 cells (whole cells)
# Sequence (P25103 whole entry): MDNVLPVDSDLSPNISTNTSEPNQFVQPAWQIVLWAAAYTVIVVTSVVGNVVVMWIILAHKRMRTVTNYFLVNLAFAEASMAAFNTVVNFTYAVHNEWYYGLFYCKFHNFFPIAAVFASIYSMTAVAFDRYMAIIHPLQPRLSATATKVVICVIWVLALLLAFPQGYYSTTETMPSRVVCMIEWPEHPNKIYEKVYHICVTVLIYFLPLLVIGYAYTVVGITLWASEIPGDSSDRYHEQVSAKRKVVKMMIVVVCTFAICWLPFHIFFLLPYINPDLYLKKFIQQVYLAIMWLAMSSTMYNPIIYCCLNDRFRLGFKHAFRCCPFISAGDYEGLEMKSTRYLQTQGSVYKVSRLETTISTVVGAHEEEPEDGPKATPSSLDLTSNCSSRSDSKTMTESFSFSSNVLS
# method-description: In Vitro Human NK1 Receptor Binding Assay ([125I]Bolton-Hunter substance P displacement, IM9 cells)
# run-parameters: Table 5; [125I]Bolton-Hunter substance P displacement, human IM9 cells; read-out: IC50 (nM) hNK1
Label key: 1 means IC50 under 800 nM; -1 means IC50 of 800 nM or more.

The examples below pair each entry with its known result.
> print(dat)
                                   compound  category
1  CC(NC(=O)C(Cc1c[nH]c2ccccc12)NCc1ccoc1)c1ccccc1 (centres unmarked)        -1
2  CC(NC(=O)C(Cc1c[nH]c2ccccc12)NCc1ccc(OCc2ccccc2)cc1)c1ccccc1 (centres unmarked)         1
3  CC(NC(=O)C(Cc1c[nH]c2ccccc12)NCc1ccc(C=Cc2ccccc2)o1)c1ccccc1 (centres unmarked)        -1
4  CC(NC(=O)C(Cc1c[nH]c2ccccc12)NCC=Cc1ccc2c(c1)OCO2)c1ccccc1 (centres unmarked)         1
5  CNS(=O)(=O)c1cc(Cl)ccc1CNC(Cc1c[nH]c2ccccc12)C(=O)NC(C)c1ccccc1 (centres unmarked)         1
6  CC(NC(=O)C(Cc1c[nH]c2ccccc12)NCc1cc(C(F)(F)F)cc(C(F)(F)F)c1)c1ccccc1 (centres unmarked)        -1

Please let me know if CC(NC(=O)C(Cc1c[nH]c2ccccc12)NCc1ccc2c(c1)Cc1ccccc1-2)c1ccccc1 (centres unmarked) shows IC50 below 800 nM.
-1

###

# system-under-test: Human NK1 Receptor (Homo sapiens)
# Construct: endogenous in cells; host or cells: Human lymphoma IM9 cells (whole cells)
# method-description: In Vitro Human NK1 Receptor Binding Assay ([125I]Bolton-Hunter substance P displacement, IM9 cells)
# run-parameters: Table 4; [125I]Bolton-Hunter substance P displacement, human IM9 cells; read-out: IC50 (nM) hNK1
measured-endpoint: IC50 (nM)
Supply the numeric figure in nM, leaving out any unit text.

Here are 3 compounds together with their reported answers.
> print(dat)
                                   compound  measured.number
1  CCOC(=O)Nc1ccccc1CNC(C)(Cc1c[nH]c2ccccc12)C(=O)NC(C)c1ccccc1 (stereo not shown) [compound 329]             4190
2  CC(NC(=O)C(C)(Cc1c[nH]c2ccccc12)NCCNC(=O)CN1C(=O)c2ccccc2C1=O)c1ccccc1 (stereo not shown) [compound 321]             3040
3  CC(NC(=O)C(C)(Cc1c[nH]c2ccccc12)NCc1ccccc1OCc1cccnc1)c1ccccc1 (stereo not shown) [compound 324]             2970

# ---- query compound ----
// IC50 lookup, compound = CC(NC(=O)C(C)(Cc1c[nH]c2ccccc12)NCc1ccc(-c2ccccc2)cc1)c1ccccc1 (stereo not shown) [compound 348] , result: 5560

###

# system-under-test: Human NK1 Receptor (Homo sapiens)
# Construct: endogenous in cells; host or cells: Human lymphoma IM9 cells (whole cells)
# method-description: In Vitro Human NK1 Receptor Binding Assay ([125I]Bolton-Hunter substance P displacement, IM9 cells)
# run-parameters: Table 4; [125I]Bolton-Hunter substance P displacement, human IM9 cells; read-out: IC50 (nM) hNK1
// map IC50 to label using bottom end (below 600 nM), midrange (600 nM to below 3000 nM), top end (3000 nM or more)

The examples below pair each entry with its known result.
> print(dat)
                                   compound                  system.under.test    category
1  CC(NC(=O)C(C)(Cc1c[nH]c2ccccc12)NCc1ccccn1)c1ccccc1 (stereo not shown) [compound 310]  Human NK1 Receptor (Homo sapiens)     top end
2  CNS(=O)(=O)c1cc(CNC(C)(Cc2c[nH]c3ccccc23)C(=O)NC(C)c2ccccc2)ccc1Cl (stereo not shown) [compound 326]  Human NK1 Receptor (Homo sapiens)     top end
3  CC(NC(=O)C(C)(Cc1c[nH]c2ccccc12)NCc1cccs1)c1ccccc1 (stereo not shown) [compound 357]  Human NK1 Receptor (Homo sapiens)  bottom end

Form: Item = CC(NC(=O)C(C)(Cc1c[nH]c2ccccc12)NCC(Cc1ccccc1)c1ccccc1)c1ccccc1 (stereo not shown) [compound 332] ; Class = ?
top end

Form: Item = CC(NC(=O)C(C)(Cc1c[nH]c2ccccc12)NCc1ccc2c(c1)OCO2)c1ccccc1 (stereo not shown) [compound 349] ; Class = ?
bottom end

###

Quick reference: log10 of IC50 of the listed items.
# system-under-test: Human NK1 Receptor (Homo sapiens)
# Construct: endogenous in cells; host or cells: Human lymphoma IM9 cells (whole cells)
# method-description: In Vitro Human NK1 Receptor Binding Assay ([125I]Bolton-Hunter substance P displacement, IM9 cells)
# run-parameters: Human lymphoma IM9 cells, [125I]Bolton-Hunter substance P; Table 3, array-synthesis products; read-out: IC50 (nM) hNK1
# log10 transformed; quantity=IC50; unit=nM

Here are 2 compounds together with their reported answers.
> print(dat)
                                   compound  measured.endpoint  measured.number
1  O=C(NCc1cccs1)C(Cc1c[nH]c2ccccc12)NCc1cc2ccccc2o1 (stereo not drawn) [Example 232]      log10 of IC50             1.80
2  O=C(NC1CCc2ccccc21)C(Cc1c[nH]c2ccccc12)NCc1cc2ccccc2o1 (stereo not drawn) [Example 195]      log10 of IC50             3.24

# ---- query compound ----
// log10 of IC50 lookup, compound = O=C(NC1Cc2ccccc2C1)C(Cc1c[nH]c2ccccc12)NCc1cc2ccccc2o1 (stereo not drawn) [Example 239] , result: 2.39

###

# system-under-test: Human NK1 Receptor (Homo sapiens)
# Construct: endogenous in cells; host or cells: Human lymphoma IM9 cells (whole cells)
# method-description: In Vitro Human NK1 Receptor Binding Assay ([125I]Bolton-Hunter substance P displacement, IM9 cells)
# run-parameters: Table 5; [125I]Bolton-Hunter substance P displacement, human IM9 cells; read-out: IC50 (nM) hNK1
Quick reference: IC50 of the listed items.
Supply the numeric figure in nM, leaving out any unit text.

Here are 5 compounds together with their reported answers.
> print(dat)
                                   compound  measured.endpoint  measured.number
1  CSc1ccc(CNC(Cc2c[nH]c3ccccc23)C(=O)NC(C)c2ccccc2)cc1 (stereo not shown)               IC50              252
2  CC(NC(=O)C(Cc1c[nH]c2ccccc12)NCc1ccsc1)c1ccccc1 (stereo not shown)               IC50             2390
3  CC(C)C=CCC1=CCC(CNC(Cc2c[nH]c3ccccc23)C(=O)NC(C)c2ccccc2)CC1 (stereo not shown)               IC50             4050
4  CC(NC(=O)C(Cc1c[nH]c2ccccc12)NCC(Cc1ccccc1)c1ccccc1)c1ccccc1 (stereo not shown)               IC50              534
5  CC(NC(=O)C(Cc1c[nH]c2ccccc12)NCC1CC=C(CCCC(C)(C)O)CC1)c1ccccc1 (stereo not shown)               IC50             5280

// IC50 lookup, compound = CC(NC(=O)C(Cc1c[nH]c2ccccc12)NCc1ccccc1Sc1ccc(Cl)cc1)c1ccccc1 (stereo not shown) , result: 201

// IC50 lookup, compound = CC(NC(=O)C(Cc1c[nH]c2ccccc12)NCC=Cc1ccc(OCc2ccccc2)cc1)c1ccccc1 (stereo not shown) , result: 932

// IC50 lookup, compound = CC(NC(=O)C(Cc1c[nH]c2ccccc12)NCc1cccc(F)c1)c1ccccc1 (stereo not shown) , result: 39

###

# system-under-test: Human NK1 Receptor (Homo sapiens, UniProt P25103)
# Construct: endogenous in cells; host or cells: Human lymphoma IM9 cells (whole cells)
# method-description: In Vitro Human NK1 Receptor Binding Assay ([125I]Bolton-Hunter substance P displacement, IM9 cells)
# run-parameters: human NK1 receptor, IM9 cells, [125I]Bolton-Hunter substance P; read-out: IC50 (nM) hNK1
measured-endpoint: IC50

> print(dat)
                                   molecule      result
1  CC(CNC(=O)C(C)(Cc1c[nH]c2ccccc12)NCc1cc2ccccc2o1)c1ccccc1 (centres unmarked) [compound 140]  > 10000 nM
2  CC(Cc1c[nH]c2ccccc12)(NCc1cc2ccccc2o1)C(=O)NCC(O)c1ccccc1 (centres unmarked) [compound 50]     1330 nM
3  CC(Cc1c[nH]c2ccccc12)(NCc1cc2ccccc2o1)C(=O)NCC(=O)N1CCOCC1 (centres unmarked) [compound 173]  > 10000 nM
4  CC(Cc1c[nH]c2ccccc12)(NCc1cc2ccccc2o1)C(=O)NCc1ccc(C(=O)O)cc1 (centres unmarked) [compound 171]  > 10000 nM
5  CN(C)c1ccc(CNC(=O)C(C)(Cc2c[nH]c3ccccc23)NCc2cc3ccccc3o2)cc1 (centres unmarked) [compound 60]      964 nM
6  CC(Cc1c[nH]c2ccccc12)(NCc1cc2ccccc2o1)C(=O)NCC(=O)c1ccccc1 (centres unmarked) [compound 163]      166 nM

// IC50 lookup, molecule = CC1(CNC(=O)C(C)(Cc2c[nH]c3ccccc23)NCc2cc3ccccc3o2)OCCO1 (centres unmarked) [compound 126] , result: 6790 nM

// IC50 lookup, molecule = CC(Cc1c[nH]c2ccccc12)(NCc1cc2ccccc2o1)C(=O)NCc1ccncc1 (centres unmarked) [compound 25] , result: 131 nM
